# Sodium-dependent dopamine transporter (Homo sapiens): Ki values follow
# Sequence (Q01959 whole entry): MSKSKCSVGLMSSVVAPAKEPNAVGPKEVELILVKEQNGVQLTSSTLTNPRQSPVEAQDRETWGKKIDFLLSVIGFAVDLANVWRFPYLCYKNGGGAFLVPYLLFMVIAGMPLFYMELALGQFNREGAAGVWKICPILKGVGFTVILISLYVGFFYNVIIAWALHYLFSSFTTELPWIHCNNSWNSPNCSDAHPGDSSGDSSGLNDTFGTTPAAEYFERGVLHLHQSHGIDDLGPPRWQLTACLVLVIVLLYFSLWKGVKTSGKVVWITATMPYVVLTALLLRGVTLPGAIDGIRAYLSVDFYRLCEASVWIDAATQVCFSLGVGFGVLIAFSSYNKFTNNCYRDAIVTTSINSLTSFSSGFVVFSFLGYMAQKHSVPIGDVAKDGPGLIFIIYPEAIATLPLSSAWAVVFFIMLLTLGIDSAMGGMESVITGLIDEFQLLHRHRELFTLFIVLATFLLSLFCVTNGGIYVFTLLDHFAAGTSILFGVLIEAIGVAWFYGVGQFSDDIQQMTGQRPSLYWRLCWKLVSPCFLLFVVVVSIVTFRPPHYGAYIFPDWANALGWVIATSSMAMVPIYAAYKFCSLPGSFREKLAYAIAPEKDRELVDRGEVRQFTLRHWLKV

Examples with their reported Ki follow.
| compound | Ki |
| --- | --- |
| CCOC(=O)[C@@H]1CN(CCn2c(=O)[nH]c3ccccc3c2=O)CC[C@@H]1c1cccs1 (racemic) | > 7.1 µM |
| CCOC(=O)[C@@H]1CN(CCn2c(=O)[nH]c3ccccc3c2=O)CC[C@@H]1c1cccc(C(F)(F)F)c1 (racemic) | > 10 µM |
| CCOC(=O)c1ccc([C@H]2CCN(CCn3c(=O)[nH]c4ccccc4c3=O)C[C@H]2C(=O)OCC)cc1 (racemic) | > 10 µM |
| CCOC(=O)C1CN(CCn2c(=O)[nH]c3ccccc3c2=O)CCC1c1ccc(F)cc1 (single isomer, unassigned; (-)) | 9.9 µM |
| CCOC(=O)C1CN(CCn2c(=O)[nH]c3ccccc3c2=O)CCC1c1ccc(F)cc1 (single isomer, unassigned; (+)) | 2.44 µM |

Asked: Would you kindly share the measured Ki for CCOC(=O)[C@@H]1CN(CCn2c(=O)[nH]c3ccccc3c2=O)CC[C@H]1c1ccc(F)cc1 (racemic) ?
Given back: > 9.3 µM

====

Exercise: for every item that follows, state its recorded IC50.
# target-under-test: Synaptic vesicular amine transporter (Homo sapiens, UniProt Q05940)
# Sequence (Q05940 whole entry): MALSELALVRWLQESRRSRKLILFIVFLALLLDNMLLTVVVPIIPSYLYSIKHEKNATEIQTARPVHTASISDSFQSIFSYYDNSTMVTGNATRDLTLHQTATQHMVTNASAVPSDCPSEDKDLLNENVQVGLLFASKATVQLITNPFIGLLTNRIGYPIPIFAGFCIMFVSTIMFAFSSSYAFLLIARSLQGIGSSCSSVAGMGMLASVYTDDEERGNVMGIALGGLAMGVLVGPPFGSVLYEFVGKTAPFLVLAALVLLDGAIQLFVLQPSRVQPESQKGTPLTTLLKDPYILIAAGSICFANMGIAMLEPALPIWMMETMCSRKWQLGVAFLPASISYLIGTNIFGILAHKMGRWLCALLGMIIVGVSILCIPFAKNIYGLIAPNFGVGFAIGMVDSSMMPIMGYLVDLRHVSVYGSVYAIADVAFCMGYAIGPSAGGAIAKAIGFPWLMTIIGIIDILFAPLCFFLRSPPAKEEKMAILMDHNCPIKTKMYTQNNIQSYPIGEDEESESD
# method-summary: Inhibition of human VMAT2 expressed in HEK293 cell membranes assessed as reduction in [3H[-5HT uptake pre-incubated for 10 mins before [3H[-5HT addition and measured after 6 mins
Give bare numbers, in nM.

Examples with their reported IC50 follow.
| molecule | target-under-test | readout-unit | IC50 |
| --- | --- | --- | --- |
| CN1[C@@H](CC(=O)c2ccccc2)CCC[C@H]1C[C@H](O)c1ccccc1 | Synaptic vesicular amine transporter (Homo sapiens, UniProt Q05940) | nM | 4200 |
| CCOC(=O)[C@@H]1CN(CCn2c(=O)[nH]c3ccccc3c2=O)CC[C@@H]1c1cccs1 (racemic) | Synaptic vesicular amine transporter (Homo sapiens, UniProt Q05940) | nM | 101 |
| CCOC(=O)[C@@H]1CN(CCn2c(=O)[nH]c3ccccc3c2=O)CC[C@@H]1c1ccc(C)cc1 (racemic) | Synaptic vesicular amine transporter (Homo sapiens, UniProt Q05940) | nM | 2700 |
| CCOC(=O)[C@@H]1CN(CCn2c(=O)[nH]c3ccccc3c2=O)CC[C@@H]1c1ccccc1 (racemic) | Synaptic vesicular amine transporter (Homo sapiens, UniProt Q05940) | nM | 19.7 |
| CCC1(O)CC2c3cc(OC)c(OC)cc3CCN2CC1CC(C)C (stereo unspecified) | Synaptic vesicular amine transporter (Homo sapiens, UniProt Q05940) | nM | 154 |

I have 5 molecules here; please give me IC50 for each one.
1. O=C(c1ccc(F)cc1)C1CCN(CCn2c(=O)[nH]c3ccccc3c2=O)CC1
2. CCOC(=O)[C@@H]1CN(CCn2c(=O)[nH]c3ccccc3c2=O)CC[C@@H]1c1ccc(C(F)(F)F)cc1 (racemic)
3. CCOC(=O)[C@@H]1CN(CCn2c(=O)[nH]c3ccccc3c2=O)CC[C@@H]1c1ccc(N(C)C)cc1 (racemic)
4. CNC(C)Cc1ccccc1 (stereo unspecified)
5. CCOC(=O)[C@@H]1CN(CCn2c(=O)[nH]c3ccccc3c2=O)CC[C@@H]1c1cccc(C(F)(F)F)c1 (racemic)

Given back:
180
2900
5800
3620
125
